These entries and their values trace back to paper PMC5912465.

Molecular target: T1, partially deglycosylated N-terminally tagged P672 (Rhipicephalus pulchellus, UniProt L7MC74 22-125)
T1 sequence: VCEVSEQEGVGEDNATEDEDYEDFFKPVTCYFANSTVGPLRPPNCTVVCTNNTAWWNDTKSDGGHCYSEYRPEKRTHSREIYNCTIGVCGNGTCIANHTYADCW
Test: BLI
Details: both partners purified
test readout: Kd (nM)
Expressed in nM, but write only the number.

query: // query Kd value for entry CCL8 (human chemokine panel) (ligand, UniProt P80075 24-99, looked up, also called MCP-2) QPDSVSIPITCCFNVINRKIPIQRLESYTRITNIQCPKEAVIFKTKRGKEVCADPKERWVRDSMKHLDQIFQNLKP
result: 72.5
